// data source = ChEMBL document CHEMBL1806455

- Tested on: Streptococcus pneumoniae
- protocol_notes: Antibacterial activity against constitutive macrolide, lincosamide, streptogramin-resistant Streptococcus pneumoniae 58 spain by broth microdilution method
- Format: functional
Give measured MIC for each item. Keep answers brief.

Solved entries (count: 2):
CC[C@H]1OC(=O)[C@H](C)[C@@H](O[C@H]2C[C@@](C)(OC)[C@@H](OC(=O)CCOCCOc3ccc4c(c3)c(=O)c(C(=O)O)cn4C3CC3)[C@H](C)O2)[C@H](C)[C@@H](O[C@@H]2O[C@H](C)C[C@H](N(C)C)[C@H]2O)[C@](C)(O)C[C@@H](C)CN(C)[C@H](C)[C@@H](O)[C@]1(C)O | ≤ 0.125 µg/mL
CC[C@H]1OC(=O)[C@H](C)[C@@H](O[C@H]2C[C@@](C)(OC)[C@@H](OC(=O)CCOCCNc3ccc4c(c3)c(=O)c(C(=O)OC(C)C)cn4C3CC3)[C@H](C)O2)[C@H](C)[C@@H](O[C@@H]2O[C@H](C)C[C@H](N(C)C)[C@H]2O)[C@](C)(O)C[C@@H](C)CN(C)[C@H](C)[C@@H](O)[C@]1(C)O | ≤ 0.125 µg/mL

Can you give me MIC for all of these, one by one?
1. CC[C@H]1OC(=O)[C@H](C)[C@@H](O[C@H]2C[C@@](C)(OC)[C@@H](OC(=O)CCOCCNc3cc4c(=O)c(C(=O)OCOCCOC)cn(C5CC5)c4cc3Cl)[C@H](C)O2)[C@H](C)[C@@H](O[C@@H]2O[C@H](C)C[C@H](N(C)C)[C@H]2O)[C@](C)(O)C[C@@H](C)CN(C)[C@H](C)[C@@H](O)[C@]1(C)O
2. CC[C@H]1OC(=O)[C@H](C)[C@@H](O[C@H]2C[C@@](C)(OC)[C@@H](OC(=O)CCOCCOc3ccc4c(c3)c(=O)c(C(=O)OC(C)C)cn4C3CC3)[C@H](C)O2)[C@H](C)[C@@H](O[C@@H]2O[C@H](C)C[C@H](N(C)C)[C@H]2O)[C@](C)(O)C[C@@H](C)CN(C)[C@H](C)[C@@H](O)[C@]1(C)O
3. CCCOC(=O)c1cn(C2CC2)c2cc(Cl)c(NCCOCCC(=O)O[C@H]3[C@H](C)O[C@@H](O[C@H]4[C@H](C)[C@@H](O[C@@H]5O[C@H](C)C[C@H](N(C)C)[C@H]5O)[C@](C)(O)C[C@@H](C)CN(C)[C@H](C)[C@@H](O)[C@](C)(O)[C@@H](CC)OC(=O)[C@@H]4C)C[C@@]3(C)OC)cc2c1=O
4. CC[C@H]1OC(=O)[C@H](C)[C@@H](O[C@H]2C[C@@](C)(OC)[C@@H](OC(=O)CCOCCOCCNc3cc4c(=O)c(C(=O)O)cn(C(C)C)c4cc3Cl)[C@H](C)O2)[C@H](C)[C@@H](O[C@@H]2O[C@H](C)C[C@H](N(C)C)[C@H]2O)[C@](C)(O)C[C@@H](C)CN(C)[C@H](C)[C@@H](O)[C@]1(C)O

result:
1: 0.25 µg/mL; 2: ≤ 0.125 µg/mL; 3: ≤ 0.125 µg/mL; 4: ≤ 0.125 µg/mL

----------
- Tested on: Staphylococcus aureus
- protocol_notes: Antibacterial activity against constitutive macrolide, lincosamide, streptogramin-resistant Staphylococcus aureus PK2 by broth microdilution method
- Type: functional
value_type: MIC (µg/mL)
One number for each entry, in µg/mL.

query: Name the recorded MIC for CC[C@H]1OC(=O)[C@H](C)[C@@H](O[C@H]2C[C@@](C)(OC)[C@@H](OC(=O)CCOCCOCCNc3cc4c(=O)c(C(=O)O)cn(CC)c4cc3Cl)[C@H](C)O2)[C@H](C)[C@@H](O[C@@H]2O[C@H](C)C[C@H](N(C)C)[C@H]2O)[C@](C)(O)C[C@@H](C)CN(C)[C@H](C)[C@@H](O)[C@]1(C)O .
result: 16
